- METHOD: chemical genetic growth profiling, strain panel (AID 1159580);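 further: tested at 20 µM; growth read once vehicle control cultures reached saturation at 30 °C; 1 = growth at the plate median or of vehicle wells; lower values mean less growth of the strain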
- EXPERIMENTAL PARAMETERS: S. cerevisiae deletion strains, growth OD, locus YPL241C, strain CIN2, stronger effect = lower value
Among all 5,500 compounds or so, about 2,000 (36%) were called active. Not shown: some 18% with an inconclusive outcome. The list shows a part of the results.
PROPERTY NAME: normalized growth

>>> recorded_result("CCCCCC(CC(=O)NO)C(=O)NC(C(=O)N1CCCC1CO)C(C)C (stereo not drawn)")
0.97
>>> recorded_result("FC(F)(F)c1cc(NC2=NCCN=C(Nc3cc(C(F)(F)F)cc(C(F)(F)F)c3)SS2)cc(C(F)(F)F)c1")
0.99
>>> recorded_result("COc1ccc2c(=O)c(-c3cc4c(cc3OC)OCO4)coc2c1")
1.04
>>> recorded_result("CCCC(=O)Nc1ncnc2c1ncn2C1O[C@@H]2COP(=O)(O)O[C@H]2[C@H]1OC(=O)CCC (stereo partly drawn)")
1.01
>>> recorded_result("CCOc1nc2cccc(C(=O)OC(C)OC(=O)OC3CCCCC3)c2n1Cc1ccc(-c2ccccc2-c2nn[nH]n2)cc1 (stereo not drawn)")
1
>>> recorded_result("O=c1c(-c2ccc3c(c2)OCO3)coc2cc(O)ccc12")
0.999
>>> recorded_result("CCCCC(=O)N(Cc1ccc(-c2ccccc2-c2nn[nH]n2)cc1)[C@H](C(=O)O)C(C)C")
0.991
>>> recorded_result("CC(=O)N[C@@H](CC(=O)O)C(=O)O")
1.01

---

Listed below: normalized growth values for each entry.
- METHOD: chemical genetic growth profiling, strain panel (AID 1159580);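 further: tested at 20 µM; growth read once vehicle control cultures reached saturation at 30 °C; 1 = growth at the plate median or of vehicle wells; lower values mean less growth of the strain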
- EXPERIMENTAL PARAMETERS: S. cerevisiae deletion strains, growth OD, locus YKL190W, strain CNB1, stronger effect = lower value
The campaign covered roughly 5,500 compounds. About 2,000 (36%) were called active. Roughly 18% stayed inconclusive and do not appear here. The list shows a part of the results.
PROPERTY NAME: normalized growth

>>> recorded_result("CCn1cc([N+](=O)[O-])nc1C")
1
>>> recorded_result("O=C1CCC(=O)N1CNc1ccccc1OC(F)(F)F")
0.999
>>> recorded_result("CCNc1nc(Cl)nc(NC(C)C)n1")
1.03
>>> recorded_result("O=C(O)C12CC3CC(CC(Br)(C3)C1)C2")
1.01
>>> recorded_result("Cc1cccc(N2C(=O)C3C4C=CC(C4)C3C2=O)n1 (stereo unspecified)")
0.991
>>> recorded_result("NNC(=S)Nc1cc(C(F)(F)F)ccc1Cl")
0.64
>>> recorded_result("NNC(=S)Nc1ccc(C(F)(F)F)cc1")
0.715
>>> recorded_result("CCCCCN=C(N)N/N=C\\c1c[nH]c2ccc(OC)cc12")
1.01
>>> recorded_result("CC(C)(C)c1cc(C(C)(C)C)n(-c2ccc(N=Cc3cc(Br)cc(Br)c3O)cc2)n1")
0.187
>>> recorded_result("CC(=O)NN(C)c1ccc(C(F)(F)F)cc1[N+](=O)[O-]")
1.01
>>> recorded_result("C/C=C(\\C)C(=O)OC1[C@@H]2C=C3C4CC(=O)O[C@@H](c5ccoc5)[C@]4(C)CCC3[C@@](C)(C2=O)[C@@H](C(O)C(=O)OC)C1(C)C (stereo partly specified)")
1

---

- METHOD: chemical genetic growth profiling, strain panel (AID 1159580);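 further: tested at 20 µM; growth read once vehicle control cultures reached saturation at 30 °C; 1 = growth at the plate median or of vehicle wells; lower values mean less growth of the strain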
- EXPERIMENTAL PARAMETERS: S. cerevisiae deletion strains, growth OD, locus YDR162C, strain NBP2, stronger effect = lower value
Out of some 5,500 compounds screened, about 2,000 (36%) were called active. Inconclusive results (about 18%) are left out. Some of the results follow.
Below, each entry is listed alongside its reported normalized growth.
PROPERTY NAME: normalized growth

>>> recorded_result("C[C@]12C=CC(=O)C=C1CCC1C2C(=O)C[C@@]2(C)C1CC[C@]2(O)C(=O)CO (stereo not given in full)")
0.992
>>> recorded_result("N#Cc1ccc2c(c1)N(CCCN1CCC(O)CC1)c1ccccc1S2")
1.02
>>> recorded_result("COc1c(O)cc(O)cc1O")
1.06
>>> recorded_result("C[C@]12C=CC(=O)C=C1CCC1C2CC[C@]2(C)C(=O)CCC12 (stereo not given in full)")
1.03
>>> recorded_result("O=c1cc(-c2ccc(O)cc2)oc2cc(O[C@@H]3O[C@H](CO)[C@@H](O)[C@H](O)[C@H]3O[C@@H]3OC[C@](O)(CO)[C@H]3O)cc(O)c12")
1.03
>>> recorded_result("COc1cc(O)c(C)c(O)c1")
1.02
>>> recorded_result("OCCN1CCN(CCCN2c3ccccc3Sc3ccc(Cl)cc32)CC1")
1
>>> recorded_result("CCOC(=O)C1=C(C)NC(C)=C(C(=O)OC)C1c1cccc([N+](=O)[O-])c1 (stereo not given)")
0.945
>>> recorded_result("COc1cc(O)c(C(C)=O)c(OC)c1")
1.05
>>> recorded_result("CCCC(=O)Nc1ncnc2c1ncn2C1O[C@@H]2COP(=O)(O)O[C@H]2[C@H]1OC(=O)CCC (stereo not given in full)")
1.01

---

Reported normalized growth values for a set of compounds
- METHOD: chemical genetic growth profiling, strain panel (AID 1159580);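 further: tested at 20 µM; growth read once vehicle control cultures reached saturation at 30 °C; 1 = growth at the plate median or of vehicle wells; lower values mean less growth of the strain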
- EXPERIMENTAL PARAMETERS: S. cerevisiae deletion strains, growth OD, locus YNL207W, strain RIO2, stronger effect = lower value
The campaign covered roughly 5,500 compounds. About 2,000 (36%) were called active. Another 18% or so got no clear call; they are omitted. The list shows a part of the results.
PROPERTY NAME: normalized growth

>>> recorded_result("Cc1c(C(=O)NCCNc2ccc(C(F)(F)F)cc2[N+](=O)[O-])cnn1-c1ccc(F)cc1")
0.973
>>> recorded_result("CCOC(=O)C(O)(c1ccc(NC(=O)Nc2ccc(Cl)cc2)cc1)C(F)(F)F (stereo unspecified)")
0.983
>>> recorded_result("Oc1ccc(-n2nnnc2SCc2ccc(OC(F)(F)F)cc2)cc1")
0.97
>>> recorded_result("O=C(SCc1c(Cl)cccc1Cl)c1ccc([N+](=O)[O-])o1")
0.947
>>> recorded_result("N#CC(C#N)=NNc1cc(C(F)(F)F)ccc1OCC(F)(F)F")
0.923
>>> recorded_result("COC(=O)c1ccc(Oc2c(C(F)(F)F)oc3cc(O)ccc3c2=O)cc1")
0.969
>>> recorded_result("COc1cc(OC)cc(/C(N)=N\\O)c1")
0.988
>>> recorded_result("NNC(=O)COc1ccc(C2SCCS2)cc1")
0.829
>>> recorded_result("Cc1nc(C(F)(F)F)ccc1-c1nnc(SC(=O)c2ccc(Cl)cc2)o1")
0.874
>>> recorded_result("COc1ccc(-c2cc(NS(=O)(=O)c3cccc(F)c3)n(-c3ccc(Cl)c(Cl)c3)n2)cc1")
0.973
>>> recorded_result("N#C/C(=C\\C=C\\c1ccccc1)c1nc2ccccc2[nH]1")
0.946
>>> recorded_result("CC(Oc1ccc(Cl)cc1Cl)C(=O)NNC(=S)Nc1ccccc1 (stereo unspecified)")
0.958
>>> recorded_result("CCOC(=O)C(NC(C)=O)(Nc1ccc(F)c(Cl)c1)C(F)(F)F (stereo unspecified)")
1
>>> recorded_result("CCOC(=O)C1C(c2ccc(Br)cc2)C(C(=O)OCC)C(O)(C(F)(F)F)NC1(O)C(F)(F)F (stereo unspecified)")
0.996
>>> recorded_result("COc1cccc(C(=O)C(C#N)=C(SC)SC)c1")
0.88
>>> recorded_result("O=C(Oc1ccc(C2SCCS2)cc1)c1cccs1")
1
>>> recorded_result("O=C(Nc1ccc(OC(F)(F)F)cc1)Nc1cncc(C(F)(F)F)c1")
0.985
>>> recorded_result("N#Cc1c(N)sc2c1CCc1ccccc1-2")
0.867
>>> recorded_result("CCCCCc1ccc(S(=O)(=O)Nc2ncc(C)cc2Br)cc1")
0.968
>>> recorded_result("CSC(SC)=C(C#N)C(=O)c1ccccc1Cl")
0.355
>>> recorded_result("N#CC(C#N)=NNc1ccc(-n2ccc(C(F)(F)F)n2)cc1")
0.875
>>> recorded_result("Nc1ccccc1C(=O)N/N=C\\c1cc(Cl)cc(Cl)c1O")
0.948
>>> recorded_result("O=C(Nc1ccc(Cl)cc1)c1csc([N+](=O)[O-])c1")
0.908
>>> recorded_result("COc1ccc(/C(C#N)=C2C=C/C(=N/O)C(Cl)=C\\2)cc1")
0.961
>>> recorded_result("Fc1ccc(Nc2nc(-c3ccc(F)c(F)c3)cs2)c(F)c1")
0.114
>>> recorded_result("S=C(NCc1ccco1)Nc1ccc(Oc2ccc(Cl)cc2)cc1")
1.02
>>> recorded_result("N#C/C(=N/Nc1ccc(Cl)cc1)C(=O)C1CC1")
0.842
>>> recorded_result("CC(NC(=S)Nc1ccc(Oc2ccc(Cl)cc2)cc1)c1ccccc1 (stereo unspecified)")
0.959
>>> recorded_result("N#C/C(=C\\c1ccc(C(F)(F)F)cc1)c1ccc(O)cc1")
0.961
>>> recorded_result("O=C(OCc1ccc(Oc2ccc(Cl)cc2Cl)c([N+](=O)[O-])c1)c1ccc([N+](=O)[O-])o1")
0.982
>>> recorded_result("CC(/C=C/c1ccccc1)=N/OC(=O)c1ccccc1Cl")
0.965
>>> recorded_result("FC(F)(F)c1ccc(C2Sc3ccccc3N=C3c4ccccc4CC32)cc1 (stereo unspecified)")
1.02
>>> recorded_result("O=C(NCc1ccc(F)c(Cl)c1)Nc1csc([N+](=O)[O-])c1")
0.981
>>> recorded_result("O=C(NNc1c(Cl)cccc1Cl)c1ccc([N+](=O)[O-])o1")
0.953
>>> recorded_result("Cc1c(Cl)cccc1N=C1SCC(=O)N1Cc1ccco1")
0.974
>>> recorded_result("O=S(=O)(Nc1ccc(-n2nc(C(F)(F)F)cc2-c2cccs2)cc1)c1ccc(F)cc1")
0.993
